# Tested target: Sequestosome-1/Kelch-like ECH-associated protein 1 (Homo sapiens, UniProt Q14145)
# Sequence (Q14145 whole entry, the tested form may be a part): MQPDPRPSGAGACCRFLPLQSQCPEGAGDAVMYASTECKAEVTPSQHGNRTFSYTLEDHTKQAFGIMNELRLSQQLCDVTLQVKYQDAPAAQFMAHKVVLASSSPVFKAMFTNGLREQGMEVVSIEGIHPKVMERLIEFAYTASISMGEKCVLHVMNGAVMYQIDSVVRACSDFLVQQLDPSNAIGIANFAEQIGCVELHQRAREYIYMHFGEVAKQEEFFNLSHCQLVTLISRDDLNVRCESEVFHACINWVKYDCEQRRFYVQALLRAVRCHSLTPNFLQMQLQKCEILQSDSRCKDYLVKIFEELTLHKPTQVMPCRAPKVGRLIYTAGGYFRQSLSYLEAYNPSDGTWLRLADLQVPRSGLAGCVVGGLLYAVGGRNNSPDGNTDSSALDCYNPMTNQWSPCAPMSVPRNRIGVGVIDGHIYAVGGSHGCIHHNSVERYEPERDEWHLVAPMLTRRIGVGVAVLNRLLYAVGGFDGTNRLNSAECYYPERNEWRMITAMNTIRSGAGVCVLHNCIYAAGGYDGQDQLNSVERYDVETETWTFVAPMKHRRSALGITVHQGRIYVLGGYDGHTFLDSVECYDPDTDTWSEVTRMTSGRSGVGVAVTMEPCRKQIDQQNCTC
# Sequence (Q13501 whole entry, further chain, the tested form may be a part): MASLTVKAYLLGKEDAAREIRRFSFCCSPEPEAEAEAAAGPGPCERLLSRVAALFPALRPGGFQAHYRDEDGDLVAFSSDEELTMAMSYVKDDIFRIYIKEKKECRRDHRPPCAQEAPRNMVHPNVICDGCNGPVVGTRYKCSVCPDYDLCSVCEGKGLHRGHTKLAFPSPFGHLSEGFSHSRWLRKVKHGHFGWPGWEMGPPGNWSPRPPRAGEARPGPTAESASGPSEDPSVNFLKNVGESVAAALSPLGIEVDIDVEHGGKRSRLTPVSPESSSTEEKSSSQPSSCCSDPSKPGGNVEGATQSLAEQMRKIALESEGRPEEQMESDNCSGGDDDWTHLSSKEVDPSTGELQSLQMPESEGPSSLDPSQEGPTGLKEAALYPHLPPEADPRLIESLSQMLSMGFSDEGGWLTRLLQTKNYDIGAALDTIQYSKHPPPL
# Test summary: Inhibition of recombinant GST-His-tagged Keap1-DC domain (321 to 609 residues) (unknown origin) expressed in Escherichia coli/FAM-labeled phosphorylated p62 (unknown origin) interaction measured after 30 mins by fluorescence polarization assay
Quantity measured: pIC50
On this scale, pIC50 is minus log10 of a concentration expressed in M (mol/L).

Test smiles: CCOc1ccc(S(=O)(=O)Nc2cc(CCC(=O)O)c(NS(=O)(=O)c3ccc(OCC)cc3)c3ccccc23)cc1
Tested target: Sequestosome-1/Kelch-like ECH-associated protein 1 (Homo sapiens, UniProt Q14145)
pIC50: 6.72
//
Test smiles: CCOc1ccc(S(=O)(=O)Nc2cc(Sc3nc[nH]n3)c(NS(=O)(=O)c3ccc(OCC)cc3)c3ccccc23)cc1
Tested target: Sequestosome-1/Kelch-like ECH-associated protein 1 (Homo sapiens, UniProt Q14145)
pIC50: 6.00
//
Test smiles: CCOc1ccc(S(=O)(=O)Nc2cc(CC(=O)O)c(NS(=O)(=O)c3ccc(OCC)cc3)c3ccccc23)cc1
Tested target: Sequestosome-1/Kelch-like ECH-associated protein 1 (Homo sapiens, UniProt Q14145)
pIC50: 6.64
//
Test smiles: CCOc1ccc(S(=O)(=O)Nc2cc(SCC(=O)OC)c(NS(=O)(=O)c3ccc(OCC)cc3)c3ccccc23)cc1
Tested target: Sequestosome-1/Kelch-like ECH-associated protein 1 (Homo sapiens, UniProt Q14145)
pIC50: 6.43
//
Test smiles: COc1ccc(S(=O)(=O)Nc2cc(CC(C)=O)c(NS(=O)(=O)c3ccc(OC)cc3)c3ccccc23)cc1
Tested target: Sequestosome-1/Kelch-like ECH-associated protein 1 (Homo sapiens, UniProt Q14145)
pIC50: 5.62

Incoming: Look up pIC50: CCOc1ccc(S(=O)(=O)Nc2ccc(NS(=O)(=O)c3ccc(OCC)cc3)c3ccccc23)cc1
Outgoing: 5.85

Incoming: Name the reported pIC50 value associated with the compound CCOc1ccc(S(=O)(=O)Nc2cc(SCC(=O)O)c(NS(=O)(=O)c3ccc(OCC)cc3)c3ccccc23)cc1
Outgoing: 6.74

Incoming: Consider the compound shown here: CCOc1ccc(S(=O)(=O)Nc2cc(CC(C)=O)c(NS(=O)(=O)c3ccc(OCC)cc3)c3ccccc23)cc1 What is its recorded pIC50?
Outgoing: 5.82
